Assay: recombinant barcode read abundance after kanamycin selection (control-corrected) (log10(CPM+1)); higher = more efficient recombination; sequences stand for … in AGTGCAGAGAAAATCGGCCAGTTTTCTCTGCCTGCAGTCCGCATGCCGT…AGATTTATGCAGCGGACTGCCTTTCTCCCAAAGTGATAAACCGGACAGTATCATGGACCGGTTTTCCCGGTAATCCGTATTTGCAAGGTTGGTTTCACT; site = the 11-nt target;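 further: IS621 recombinase and bridge RNA in Escherichia coli cells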
ENDPOINT: recombinant barcode read abundance (log10)
Lab note: write the figure by itself, no unit.

Example cases with answers are listed next.
[[record]]
seq_text = "GGGACATCTTGGGTTCTAACCTGTTGCCT (site GGGACATCTAG)"
reading = 0.987

[[record]]
seq_text = "TAGTACCCTTGGGTTCTAACCTGTTGCAC (site TAGTACCCTCT)"
reading = 0.298

[[record]]
seq_text = "TTCTCTCCTTGGGTTCTAACCTGTTGCCT (site TTCTATCCTAG)"
reading = 0.0831

[[record]]
seq_text = "TATTTGCCTTGGGTTCTAACCTGTTGCCT (site TACTTGCCTAG)"
reading = 0

[[record]]
seq_text = "GGGGTTCCTTGGGTTCTAACCTGTTGCTT (site GGGGTTCCTAA)"
reading = 1.52

[[record]]
seq_text = "CTAATCCCTTGGGTTCTAACCTGTTGCAT (site CATATCCCTAT)"
reading = 0.0276

[[record]]
seq_text = "GAGCAGACTTGGGTTCTAACCTGTTGCCT (site GAGCGGACTAG)"
reading = 0.235

[[record]]
seq_text = "TGGTAGTCTTGGGTTCTAACCTGTTGCGT (site TGGTAGTCTAC)"
reading = 2.57

[[record]]
seq_text = "CTCTATTCTTGGGTTCTAACCTGTTGCAT (site CTCTATTCTAT)"
reading = 0.242

[[record]]
seq_text = "TCCAAACCTTGGGTTCTAACCTGTTGCAG (site TCCAAACCTCT)"
reading = 0.898


I am curious: what recombinant barcode read abundance (log10) value has been reported for TGATCCTCTTGGGTTCTAACCTGTTGCTA (site AGGTCCTCTTA) ?
0.0555

Look at this sequence and give its reported recombinant barcode read abundance (log10). GCCGAGTCTTGGGTTCTAACCTGTTGCTA (site GCCGAGTCTTA)
0.411

Recorded recombinant barcode read abundance (log10) of TTCTTGCCTTGGGTTCTAACCTGTTGCCT (site TTATTGTCTAG) , please.
0.111

Which recombinant barcode read abundance (log10) value belongs to TCCCGGACTTGGGTTCTAACCTGTTGCCT (site TCCCGGACTAG) ?
0.892

Could you tell me which recombinant barcode read abundance (log10) is on file for CTGCGTACTTGGGTTCTAACCTGTTGCCG (site CTGCGTACTCG) ?
0.365

Quick one: recombinant barcode read abundance (log10) of TGTGCACCTTGGGTTCTAACCTGTTGCAC (site TGTGCACCTGT) ?
0.32

Which recombinant barcode read abundance (log10) reading was recorded for the sequence TAACTTACTTGGGTTCTAACCTGTTGCAT (site TAACCTACTAT) ?
0.0991

Fill blank: measured recombinant barcode read abundance (log10) of the sequence TTGGCGCCTTGGGTTCTAACCTGTTGCCT (site TCGGCTCCTAG) is ____.
0.0935

Which value of recombinant barcode read abundance (log10) has been reported for GTCCTGTCTTGGGTTCTAACCTGTTGCCG (site GTCCTGTCTCG) in the records?
1.16

Look at this sequence and give its reported recombinant barcode read abundance (log10). TAGTACCCTTGGGTTCTAACCTGTTGCAC (site TAGTACCCTTT)
0.0304

What does the record list as recombinant barcode read abundance (log10) for GCGATGTCTTGGGTTCTAACCTGTTGCCT (site GAGATGTCTAG) ?
0.183

Bench note: what recombinant barcode read abundance (log10) did CAACGACCTTGGGTTCTAACCTGTTGCCT (site TAACGACCTAG) show?
0.166
